biological target: monkey CD19-his protein (monkey); experiment: ELISA, monkey CD19 coated
// reported OD450 at 0.10 nM per item

- binder: "FMC63-mIgG1 (antibody, V domains shown, Parent murine antibody; also called murine antibody FMC63) VH: EVKLQESGPGLVAPSQSLSVTCTVSGVSLPDYGVSWIRQPPRKGLEWLGVIWGSETTYYNSALKSRLTIIKDNSKSQVFLKMNSLQTDDTAIYYCAKHYYYGGSYAMDYWGQGTSVTVSS VL: DIQMTQTTSSLSASLGDRVTISCRASQDISKYLNWYQQKPDGTVKLLIYHTSRLHSGVPSRFSGSGSGTDYSLTISNLEQEDIATYFCQQGNTLPYTFGGGTKLEITR"
  OD450 at 0.10 nM, OD450: 0.05
- binder: "FMC63.25-mIgG1 (antibody, V domains shown, Humanized FMC63; also called FMC63-L2H5) VH: EVTLKESGPVLVKPTETLTLTCTVSGFSLSDYGVSWIRQPPGKALEWLAVIWGSETTYYNSALKSRLTISKDTSKSQVVLTMTNMDPVDTATYYCAKHYYYGGSYAMDYWGQGTTVTVSS VL: DIQMTQSPSSLSASVGDRVTITCRASQDISKYLNWYQQKPGGAVKLLIYHTSRLHSGVPSRFSGSGSGTDYTLTISSLQPEDFATYYCQQGNTLPYTFGGGTKVEIKR"
  OD450 at 0.10 nM, OD450: 0.08
- binder: "FMC63.27-mIgG1 (antibody, V domains shown, Humanized FMC63; also called FMC63-L2H7) VH: EVTLKESGPVLVKPTETLTLTCTVSGVSLPDYGVSWIRQPPGKALEWLAVIWGSETTYYNSALKSRLTISKDNSKSQVVLTMTNMDPVDTATYYCAKHYYYGGSYAMDYWGQGTTVTVSS VL: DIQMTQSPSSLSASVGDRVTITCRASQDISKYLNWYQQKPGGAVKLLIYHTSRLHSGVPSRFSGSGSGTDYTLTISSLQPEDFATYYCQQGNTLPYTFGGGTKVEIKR"
  OD450 at 0.10 nM, OD450: 0.05
- binder: "FMC63.26-mIgG1 (antibody, V domains shown, Humanized FMC63; also called FMC63-L2H6) VH: EVTLKESGPVLVKPTETLTLTCTVSGFSLPDYGVSWIRQPPGKALEWLAVIWGSETTYYNSALKSRLTISKDTSKSQVVLTMTNMDPVDTATYYCAKHYYYGGSYAMDYWGQGTTVTVSS VL: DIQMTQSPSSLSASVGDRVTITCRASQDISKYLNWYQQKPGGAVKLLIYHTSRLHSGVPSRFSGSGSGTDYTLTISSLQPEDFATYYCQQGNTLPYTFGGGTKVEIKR"
  OD450 at 0.10 nM, OD450: 0.05
